- Tested on: K562
- measurement-notes: NCI tumour cell line growth inhibition, 48 h
The source made the active and inactive calls. No stated cut-off is given here; in the data, active = GI50 up to about 1.1 µM and inactive = higher.
Labels: active, inactive

CN(C(=O)Cc1cc(Cl)c(Cl)cc1NC(=O)CCCN)[C@H]1CCCC[C@@H]1N1CCCC1
inactive
Cc1ncc([N+](=O)[O-])n1CC[N+](C)([O-])CCCCn1ccnc1[N+](=O)[O-] (stereo not given)
inactive
NC(=S)N/N=C/C(O[C@@H](/C=N/NC(N)=S)CO)n1cnc2c(N)ncnc21 (stereo not given in full)
inactive
CN(C)C(=O)/N=c1\ss/c(=N\C(=S)N(C)C)n1-c1ccccc1
active
CCCCCCNC(=O)C1=C(C)NC(C)=C(C(=O)NCCCCCC)C1
inactive
COc1cc(N(CCC#N)CCC#N)ccc1C(/N=N/c1ccccc1C)=N\NC(=O)c1ccc(C)cc1
inactive
Nc1nc(=O)n(C2CC(O)C(O)C(CO)O2)cc1F (stereo not given)
inactive
FC(F)(F)C1(C(F)(F)F)C2CCC3(CC(F)(F)C(F)(F)S3)C1C2 (stereo not given)
inactive
COc1ccc2c(c1)CC1Cc3cc(OC)c(OC)cc3CN1CC2 (stereo not given)
inactive
O=C1CCCc2ccc3c(c21)CC1(Cc2ccccc2C1)C3
inactive

###

- System: A549
- measurement-notes: NCI tumour cell line growth inhibition, 48 h
Active and inactive are the calls of the source. Rule as the data show it: active = GI50 up to about 1.1 µM and inactive = higher.
observable: GI50

N#Cc1nn(-c2ccc(Cl)cc2)c(=N)c2c(N)n3nc(-c4ccccc4)cc3nc12
1 µM (active)
Cc1cc(S(=O)(=O)Nc2nncn2-c2ccc(Cl)cc2)c(S)cc1Cl
> 10 µM (inactive)
O=C(CSCC(=O)N/N=C/c1ccccc1)N/N=C\c1ccccc1
> 100 µM (inactive)
CN=S(=O)(C[C@]1(O)CC2OC1C1OC(C)(C)OC21)c1ccccc1 (stereo partly specified)
> 100 µM (inactive)
O=C(NO)c1cccc(OCc2ccc(Br)cc2)c1
5.28 µM (inactive)
NC(=S)N/N=C/C(O[C@@H](/C=N/NC(N)=S)CO)n1cnc2c(N)ncnc21 (stereo partly specified)
> 65.3 µM (inactive)
C/C(=C/c1c(C)[nH]c(=O)[nH]c1=O)C(=O)O
> 1370 µM (inactive)
N#CN=C(N(Cc1ccccc1)Cc1ccccc1)N(Cc1ccccc1)Cc1ccccc1
6.44 µM (inactive)
O=C1/C(=C/c2ccccc2)CN(C(=O)C(Cl)(Cl)Cl)C/C1=C\c1ccccc1
13.9 µM (inactive)
CC(C)N(C(=O)C12C3C4C5C3C1(C#N)C5C42)C(C)C (stereo unspecified)
> 100 µM (inactive)
COc1cc2cnc3c4cc(OCc5ccccc5)ccc4ccc3c2cc1OC
25.5 µM (inactive)
COC(=O)C1CCC(=O)N1C(c1ccc2c(c1)OCO2)c1cc(OC)c(OC)c(OC)c1 (stereo unspecified)
> 100 µM (inactive)
Nc1c(C(=O)c2ccc(Cl)cc2)[nH]c(Nc2ccc(Cl)cc2)c1C(=S)Nc1ccccc1
3.21 µM (inactive)
O=C1O/C(=C(/Cl)c2cccc3ccccc23)c2ccccc21
> 100 µM (inactive)
CN(CCN(C)CCN(C)C(=O)Cc1ccc(Cl)c(Cl)c1)CCN1CCCC1
37 µM (inactive)
COC(=O)c1c(O)ccc2c1c1c(n2Cc2ccccn2)C(=O)c2ccccc2C1=O
29.8 µM (inactive)
CCC(=O)OC1CCn2c1nc1c2C(=O)C(C)=C(NC(C)=O)C1=O (stereo unspecified)
2.05 µM (inactive)
O=C1c2cccc(NCCCNCCO)c2C(=O)c2cccc(NCCCNCCO)c21
1.99 µM (inactive)
CCOC(=O)c1cc(-c2ccc(-c3cc(C(=O)OCC)c(C#N)c(N)c3C#N)cc2)c(C#N)c(N)c1C#N
> 100 µM (inactive)
Cc1cc(C)c(C(=O)/C=C/c2ccccc2)c(C)c1
30.2 µM (inactive)
CC[C@@H]1CN(C)[C@H]2Cc3c([nH]c4ccccc34)C(=O)C[C@H]1C2C(=O)OC (stereo partly specified)
> 100 µM (inactive)

###

- Tested on: PC-3
- measurement-notes: NCI tumour cell line growth inhibition, 48 h
Activity calls are given as the source filed them. Rule as the data show it: active = GI50 up to about 1.1 µM and inactive = higher. Starred links: 1 amine or outer side, 2 acyl side, 3 side chain; linkers in the order of their positions; H or OH if unused. Positions of bridges follow the written chain, without caps; N, C: chain ends. Non-standard residues stand in square brackets, D forms with d. Residues, ends and D or L forms follow the SMILES beside them. ξ: configuration not given here. X11 = CCC(C)C(N[*:1])C(O)CC(=O)O[C@H](C(=O)C(C)C(=O)[*:2])C(C)C; X10 = O=C([C@@H]1CC(O)CN1[*:1])[*:2]; NMeY = CN[C@@H](Cc1ccc(O)cc1)C(=O)O; ξNMeL = CNC(CC(C)C)C(=O)O; ξT = CC(O)C(N)C(=O)O
Labels: active, inactive

CN(COC(=O)C(C)(C)C)c1nc(N(C)COC(=O)C(C)(C)C)nc(N(C)COC(=O)C(C)(C)C)n1
inactive
CCC(C)C1NC(=O)C(NC(=O)C(CC(C)C)N(C)C(=O)[C@@H]2CC(O)CN2)C(C)OC(=O)[C@H](Cc2ccc(OC)cc2)N(C)C(=O)[C@@H]2CCCN2C(=O)[C@H](CC(C)C)NC(=O)C(C)C(=O)[C@H](C(C)C)OC(=O)CC1O (some centres undefined) (H-[X10][ξNMeL][ξT][X11]LP[NMeY](Me); ester 3-C)
active
CC1=C(O)C(=O)C=C2C1=CC=C1[C@@]2(C)CC[C@@]2(C)C3C[C@@H](C)C(=O)[C@@H](O)[C@]3(C)CC[C@]12C (some centres undefined)
inactive
N#CC(O)CCOCc1ccccc1 (centres undefined)
inactive
COc1ccc2[nH]c3c(C)c4ccnc(NCCCN(C)CCCNc5ccc6ncn7c8ccccc8c(=O)c5c67)c4c(C)c3c2c1
active
Cc1n[nH]c(C(F)(F)F)c1/N=N/N(C)C
inactive
Cc1ccc2c(c1)CC1(C2)Cc2ccc(C)cc2C1=O (centres undefined)
inactive
CC(C)(/N=N/C(C)(C)C(=O)NCCO)C(=O)NCCO
inactive
[N-]=[N+]=CC(=O)OCCCCl
inactive
CCOC(=O)/C=C(\C(=O)OCC)n1cc(C)c(=O)n(Cc2cnnn2CCCCOC(C)=O)c1=O
inactive
CN(C(=O)C1=CCCCCC1)c1ccccc1I
inactive
Cc1c2cc[n+](C)cc2c(C)c2c1[nH]c1ccc(Cl)cc12
active
CC(=O)OC1COC(n2c(N)c(C#N)c(C)c(C#N)c2=S)C(OC(C)=O)C1OC(C)=O (centres undefined)
inactive
CCCC(=O)Oc1ccc2c(C)cc(=O)oc2c1OC(=O)CCC
inactive
Cn1c(S)nc2c(Cl)cc(Cl)cc2c1=O
inactive
CC(C)(C)c1ccc(-n2c3nc(=O)n(-c4ccccc4CO)c(=O)c-3cc3ccccc32)cc1
inactive
O=c1cc(NNc2ccccc2)[nH]c(=O)[nH]1
inactive
COc1c2nc(CCl)n(C)c(=O)c2c(OC)c2c(=O)n(C)c(CCl)nc12
inactive
CCc1nc(N)nc(N)c1-c1ccc(Cl)c(Cl)c1
inactive

###

- Test system: SNB-78
- measurement-notes: NCI tumour cell line growth inhibition, 48 h
The source made the active and inactive calls. Cut-off read from the data, not from the text of the source: active = GI50 up to about 1.1 µM and inactive = higher.
observable: GI50

CCOc1ccccc1NC(=O)C(=O)CC(=O)C1=C(C)Nc2ccccc2S1
> 100 µM (inactive)
CCOP1(=O)C=C(C)C(=C(Cl)Cl)C(C)=C1 (stereo unspecified)
> 10 µM (inactive)
O=S1(=O)CCN(c2ccccc2CC(c2c[nH]c3ccccc23)c2c[nH]c3ccccc23)CC1
30.1 µM (inactive)
CN=S(=O)(C[C@]1(O)CC2OC1C1OC(C)(C)OC21)c1ccccc1 (stereo partly specified)
> 100 µM (inactive)
CC1=CC(=O)NCCN1C
> 100 µM (inactive)
CC(C)CCCC(C)[C@H]1CCC2[C@@H]3CCC4Nc5c(cnn5-c5ccccc5)C[C@]4(C)C3CC[C@@]21C (stereo partly specified)
18.7 µM (inactive)

###

- System: NCI-H522
- measurement-notes: NCI tumour cell line growth inhibition, 48 h
Calls of active or inactive are those of the source. Cut-off read from the data, not from the text of the source: active = GI50 up to about 1.1 µM and inactive = higher.
Labels: true = active, false = inactive

CN=S(=O)(C[C@]1(O)CC2OC1C1OC(C)(C)OC21)c1ccccc1 (stereo partly specified)
false
CSC1NC(c2ccc(Cl)cc2)=C(C#N)C(=O)N1C1OCC(OC(C)=O)C(OC(C)=O)C1OC(C)=O (stereo unspecified)
false
CCN(CC)c1ccc2cc(C(=O)Nc3nc(C45CC6CC(CC(C6)C4)C5)cs3)c(=O)oc2c1
false
CC/C=C\C/C=C\C/C=C\CCCCCCCC(=O)OCC(O)CO (stereo unspecified)
false
Clc1ccc(C2=CCN3CC=C(c4ccc(Cl)cc4)C23)cc1
false
O=C1NC(NNc2ccccc2)=N/C1=C\c1ccccc1O
false
O=P1(C(O)/C=C/c2ccccc2)N(Cc2ccccc2)[C@@H]2CCCC[C@H]2N1Cc1ccccc1 (stereo partly specified)
false
Cc1cc(NS(=O)(=O)c2ccc(Nc3c4ccccc4nc4c(C(=O)NCCO)cccc34)cc2)no1
false
Cc1ccc2c(O)cc(-c3ccccc3)nc2n1
true
Cc1n[nH]c(C(F)(F)F)c1/N=N/N(C)C
false
COC(=O)C(=O)C(C(=O)OC)C(=O)C(=O)Nc1cc(Cl)c(Cl)cc1Cl (stereo unspecified)
false
CC1/C(=N\O)CC(c2ccccc2)N(C)C1c1ccccc1 (stereo unspecified)
false
O=c1[nH]cc(/C=N\Nc2ccccc2)c(=O)[nH]1
false
CN(C)C(=S)SCC(N)=O
false
O=C1CCCc2ccc3c(c21)CC1(Cc2ccccc2C1)C3
false
Cc1ccc(Nc2n[nH]c(NS(=O)(=O)c3cc(C)c(Cl)cc3S)n2)cc1
false
C[n+]1c2ccccc2c(/C=N\NS(=O)(=O)c2ccc(Cl)cc2)c2ccccc21
false
CC(C)C1=CC(=O)[C@@](C)(C2[C@H](O)C[C@@]3(C)[C@@H]4CC=C5[C@@H](CC[C@@H](OC6OCC(O)C(O)C6OC6OC(C)C(O)C(O)C6O)C5(C)C)[C@]4(C)C(=O)C[C@]23C)O1 (stereo partly specified)
false
CC1=CC(=O)NCCN1C
false
NC(=O)c1cn(C2OC(CO)C(O)C2O)c(=O)[nH]c1=O (stereo unspecified)
false
CCOCN1COCN/C1=N/C#N
false
